# Tested on: rat CYP3A1, gene 25642
# measurement-description: NVS_ADME_rCYP3A1: NovaScreen (NVS) CYP450-related Enzyme Activity (ADME) Assay for rat CYP3A1 (AID 2283126)
The source made the active and inactive calls. The calls were made as follows: active = hit-call score of the fitted dose curve at least 0.9, where 1 is the maximum; inconclusive = response in the unintended direction; inactive = score below 0.9.
Valid outcomes are listed here; reply with one: label 1 for active, label 0 for inactive

In: # fetch the recorded call for CN(C)C(=S)SSC(=S)N(C)C here
Out: label 1

In: # fetch the recorded call for N#CC(CCc1ccc(Cl)cc1)(Cn1cncn1)c1ccccc1 (configuration not stated) here
Out: label 1

In: # fetch the recorded call for CON(C)C(=O)Nc1ccc(Cl)c(Cl)c1 here
Out: label 0

In: # fetch the recorded call for COc1ccc(C(c2ccc(OC)cc2)C(Cl)(Cl)Cl)cc1 here
Out: label 0

In: # fetch the recorded call for CO/C=C(/C(=O)OC)c1ccccc1Oc1cc(Oc2ccccc2C#N)ncn1 here
Out: label 1

In: # fetch the recorded call for CCOC(=O)CC(SP(=S)(OC)OC)C(=O)OCC (configuration not stated) here
Out: label 1

In: # fetch the recorded call for CCCC1COC(Cn2cncn2)(c2ccc(Cl)cc2Cl)O1 (configuration not stated) here
Out: label 1
